Please provide measured pEC50 for the entries that follow.
# SYSTEM_UNDER_TEST: IDO1 (Homo sapiens, UniProt P14902)
# Construct: HeLa cells were treated with a test compound in the presence of IFNγ, which induces IDO1 expression; endogenous in cells
# Sequence (P14902 whole entry): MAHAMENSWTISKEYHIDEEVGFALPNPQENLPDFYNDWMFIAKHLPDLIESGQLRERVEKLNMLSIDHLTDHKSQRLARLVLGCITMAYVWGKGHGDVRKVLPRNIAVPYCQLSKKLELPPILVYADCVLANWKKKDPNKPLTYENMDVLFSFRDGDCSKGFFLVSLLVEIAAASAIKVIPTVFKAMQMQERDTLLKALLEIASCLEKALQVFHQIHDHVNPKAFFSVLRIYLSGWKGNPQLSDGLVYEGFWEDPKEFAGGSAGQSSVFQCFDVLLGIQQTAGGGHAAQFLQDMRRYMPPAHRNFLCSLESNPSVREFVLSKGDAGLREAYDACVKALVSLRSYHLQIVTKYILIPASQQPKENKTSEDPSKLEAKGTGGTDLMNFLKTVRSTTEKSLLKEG
# EXPERIMENT_NOTES: Cell-Based (HeLa) Assay for Measurement of IDO1 Inhibition
# CONDITION: H1-HeLa cells, IDO1 induced with IFNγ, 48 hour incubation, kynurenine in supernatant (absorbance 480 nm); geometric mean of minimum four determinations
Answers are plain numbers, as −log10 of the molar value.

[[record]]
molecule = "O=C(Nc1ccc(F)cc1)c1cc(-c2cccn3c(-c4cccc(F)c4F)c(CO)nc23)ccc1C(F)(F)F"
system_under_test = "IDO1 (Homo sapiens, UniProt P14902)"
observation_type = "pEC50"
observed_value = 7.40

[[record]]
molecule = "Cc1ncc(-c2cccn3c(-c4cncc(F)c4)c(CO)nc23)cc1C(=O)Nc1ccc(F)cc1"
system_under_test = "IDO1 (Homo sapiens, UniProt P14902)"
observation_type = "pEC50"
observed_value = 5.44

[[record]]
molecule = "Cc1cnc(-c2cccn3c(-c4cccc(F)c4F)cnc23)cc1C(=O)Nc1ccc(F)cc1"
system_under_test = "IDO1 (Homo sapiens, UniProt P14902)"
observation_type = "pEC50"
observed_value = 6.02


Could you now consider this next compound?
stdin: Would you kindly share the measured pEC50 for COCCOCc1nc2c(-c3ccc(C(F)(F)F)c(C(=O)Nc4ccc(F)cc4)c3)cccn2c1-c1cccc(F)c1F ?
stdout: 5.06

* * *

# SYSTEM_UNDER_TEST: IDO1 (Homo sapiens, UniProt P14902)
# Construct: HeLa cells were treated with a test compound in the presence of IFNγ, which induces IDO1 expression; endogenous in cells
# EXPERIMENT_NOTES: Cell-Based (HeLa) Assay for Measurement of IDO1 Inhibition
# CONDITION: H1-HeLa cells, IDO1 induced with IFNγ, 48 hour incubation, kynurenine in supernatant (absorbance 480 nm); geometric mean of minimum four determinations
Please provide measured log10(EC50) for the entries that follow.
Annotation: log10 of EC50, nM basis.

Worked cases, answers included:
[[record]]
molecule = "Cc1ccc(-c2cccn3c(-c4ccccc4F)cnc23)cc1C(=O)Nc1ccc(F)cc1"
observed_value = 1.86

[[record]]
molecule = "Cc1ncccc1-c1cnc2c(-c3ccc(C(F)(F)F)c(C(=O)Nc4ccc(F)cc4)c3)cccn12"
observed_value = 2.73

[[record]]
molecule = "Cc1ccc(-c2cnc3c(-c4ccc(C(F)(F)F)c(C(=O)Nc5ccc(F)cc5)c4)cccn23)cn1"
observed_value = 3.35


Record log10(EC50) for all entries; do not skip any.
1. O=C(Nc1ccc(F)cc1)c1cc(-c2cccn3c(-c4cccnc4F)cnc23)ccc1C(F)(F)F
2. Cc1ncc(-c2cccn3c(-c4cccc(F)c4F)c(CO)nc23)cc1C(=O)Nc1ccc(F)cc1

stdout:
1. 1.87
2. 2.57

* * *

# SYSTEM_UNDER_TEST: IDO1 (Homo sapiens, UniProt P14902)
# Construct: HeLa cells were treated with a test compound in the presence of IFNγ, which induces IDO1 expression; endogenous in cells
# EXPERIMENT_NOTES: Cell-Based (HeLa) Assay for Measurement of IDO1 Inhibition
# CONDITION: H1-HeLa cells, IDO1 induced with IFNγ, 48 hour incubation, kynurenine in supernatant (absorbance 480 nm); geometric mean of minimum four determinations
OBSERVATION_TYPE: EC50
Please provide the amount together with its unit, number first.

Worked cases, answers included:
[[record]]
molecule = "Cc1ccc(-c2cccn3c(-c4cccc(F)c4)cnc23)cc1C(=O)Nc1ccc(F)cc1 [Example 19]"
observation_type = "EC50"
observed_value = "146 nM"

[[record]]
molecule = "NCc1nc2c(-c3ccc(C(F)(F)F)c(C(=O)Nc4ccc(F)cc4)c3)cccn2c1-c1cccc(F)c1F [Example 7]"
observation_type = "EC50"
observed_value = "1010 nM"


stdin: Would you kindly share the measured EC50 for Fc1ccc2[nH]c(-c3cc(-c4cccn5c(-c6cccc(F)c6F)cnc45)ccc3C(F)(F)F)nc2c1 [Example 36] ?
stdout: 713 nM
